# measured.on: Thymidylate kinase (Homo sapiens)
# assay.text: Inhibition of human thymidylate kinase using dTMP as substrate at 200 uM after 30 mins by fluorescence analysis
observed.property: inhibition (%)
The reply should contain only the number, in %.

Below, 4 compounds whose answers are already recorded.
Data request: Form field: reported inhibition of Cn1c(=O)[nH]c2ncc(-c3cccc(C(=O)NCCCc4ccc(F)cc4)c3)cc21
Data returned: 58

Data request: Form field: reported inhibition of Cn1c(=O)[nH]c2ncc(-c3ccccc3)cc21
Data returned: 17

Data request: Form field: reported inhibition of Cn1c(=O)[nH]c2ncc(-c3cccc(C(=O)NCCCc4ccc(C(F)(F)F)cc4)c3)cc21
Data returned: 55

Data request: Form field: reported inhibition of Cn1c(=O)[nH]c2ncc(-c3cccc(C(=O)NCCCc4ccccc4)c3)cc21
Data returned: 43

Now look at this one.
Data request: Form field: reported inhibition of Cn1c(=O)[nH]c2ncc(-c3cccc(C(N)=O)c3)cc21
Data returned: 12

Cited source: ChEMBL document CHEMBL1955766
